Target: Recombinant human Src (Homo sapiens)
Construct: made in house; host or cells: baculovirus-insect cell system
Assay: Src tyrosine kinase activity assay with poly E4Y and 32P-ATP
Format: biochemical
Conditions: poly E4Y, 32P-ATP; NI = no inhibition; read-out: IC50 Value Src
pIC50: −log10 of the molar value.
The following compounds are listed with their measured pIC50 values.

[
  {
    "Substance Smiles": "Cc1c(-c2ccc(N)cc2)sc2c(NN=Cc3cccnc3)ncnc12",
    "pIC50": 8.02
  },
  {
    "Substance Smiles": "CCOc1ccccc1-c1sc2c(NN=Cc3ccc(OC)c(O)c3)ncnc2c1CO",
    "pIC50": 7.96
  },
  {
    "Substance Smiles": "COc1ccc(C=NNc2ncnc3c(C#N)c(-c4ccc(N)cc4)sc23)cc1O",
    "pIC50": 7.80
  },
  {
    "Substance Smiles": "CCOc1ccccc1-c1sc2c(NN=Cc3sccc3C)ncnc2c1O",
    "pIC50": 8.05
  },
  {
    "Substance Smiles": "CCOc1ccccc1-c1sc2c(NN=Cc3ccc(OC)c(O)c3)ncnc2c1CC",
    "pIC50": 7.85
  }
]

* * *

Molecular target: Recombinant human Src (Homo sapiens)
Construct: made in house; host or cells: baculovirus-insect cell system
Experiment: Src tyrosine kinase activity assay with poly E4Y and 32P-ATP
Assay type: biochemical
Conditions: poly E4Y, 32P-ATP; NI = no inhibition; read-out: IC50 Value Src
pIC50: −log10 of the molar value.
The following molecules are listed with their measured pIC50 values.

[
  {
    "Substance Smiles": "COc1ccc(C=NNc2ncnc3c(C)c(-c4ccc(O)cc4)sc23)cc1O",
    "pIC50": 7.82
  },
  {
    "Substance Smiles": "CCOc1ccccc1-c1sc2c(NN=Cc3ccc(C(=O)OC)cc3)ncnc2c1O",
    "pIC50": 8.23
  },
  {
    "Substance Smiles": "CCOc1cc(F)ccc1-c1sc2c(NN=Cc3ccc(OC)c(O)c3)ncnc2c1O",
    "pIC50": 8.22
  },
  {
    "Substance Smiles": "CCOc1ccccc1-c1sc2c(NN=Cc3c[nH]c(=O)[nH]c3=O)ncnc2c1C#N",
    "pIC50": 7.92
  },
  {
    "Substance Smiles": "CCOc1ccccc1-c1sc2c(NN=Cc3ccc(N(C)C)cc3)ncnc2c1O",
    "pIC50": 8.21
  }
]

* * *

Biological target: Recombinant Csk (Homo sapiens, UniProt P41240)
Construct: GST ('glutathione-5-transferase' [sic])
Sequence (P41240 whole entry, species assumed): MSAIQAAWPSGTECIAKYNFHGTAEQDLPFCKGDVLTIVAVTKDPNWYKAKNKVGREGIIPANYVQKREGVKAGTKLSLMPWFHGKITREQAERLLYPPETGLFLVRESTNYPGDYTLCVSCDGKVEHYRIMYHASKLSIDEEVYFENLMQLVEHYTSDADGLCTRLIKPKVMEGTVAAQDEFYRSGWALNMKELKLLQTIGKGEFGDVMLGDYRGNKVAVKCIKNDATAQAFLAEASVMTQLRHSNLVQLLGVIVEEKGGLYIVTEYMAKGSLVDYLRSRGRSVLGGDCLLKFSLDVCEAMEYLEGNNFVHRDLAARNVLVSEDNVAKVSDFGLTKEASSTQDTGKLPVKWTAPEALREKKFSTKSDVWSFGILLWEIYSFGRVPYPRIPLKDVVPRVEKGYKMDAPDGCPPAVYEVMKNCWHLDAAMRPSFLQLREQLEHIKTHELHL
Assay: Csk tyrosine kinase activity assay with poly E4Y and 32P-ATP
Conditions: NI = no inhibition
Measured Quantity: log10 of IC50 (log10 of the value in µM)

[
  {
    "Molecule": "Cc1c(-c2ccc(C(N)=NO)cc2)sc2c(NN=Cc3cccnc3)ncnc12 [Compound 50]",
    "Result Number": 1.62
  },
  {
    "Molecule": "CCOc1ccccc1-c1sc2c(NN=Cc3ccc(OC)c(O)c3)ncnc2c1O [Compound 37]",
    "Result Number": 0.11
  },
  {
    "Molecule": "CCOc1ccccc1-c1sc2c(NN=Cc3cccc(O)c3)ncnc2c1C#N [compound 103]",
    "Result Number": 1.11
  },
  {
    "Molecule": "CCOc1ccccc1-c1sc2c(NN=Cc3ccco3)ncnc2c1O [Compound 121]",
    "Result Number": 0.70
  },
  {
    "Molecule": "CCOc1ccccc1-c1sc2c(NN=Cc3ccc(O)c(Cl)c3)ncnc2c1O [Compound 92]",
    "Result Number": 1.05
  },
  {
    "Molecule": "CCOc1ccccc1-c1sc2c(NN=Cc3ccc(OCCN4CCOCC4)c(OC)c3)ncnc2c1C [Compound 54]",
    "Result Number": 2.04
  },
  {
    "Molecule": "C=Cc1c(-c2ccccc2OCC)sc2c(NN=Cc3ccc(OC)c(O)c3)ncnc12 [Compound 34]",
    "Result Number": 0.13
  },
  {
    "Molecule": "CCOc1ccccc1-c1sc2c(NN=Cc3sccc3C)ncnc2c1O [Compound 124]",
    "Result Number": 1.18
  },
  {
    "Molecule": "COc1ccc(C=NNc2ncnc3c(C)c(-c4ccc(C(N)=NO)cc4)sc23)cc1O [Compound 51]",
    "Result Number": 1.67
  },
  {
    "Molecule": "Cc1c(-c2cccc(C(N)=NO)c2)sc2c(NN=Cc3cccnc3)ncnc12 [Compound 49]",
    "Result Number": 2.09
  },
  {
    "Molecule": "CCOc1ccccc1-c1sc2c(NN=Cc3cc(O)c(OC)c(OC)c3)ncnc2c1O [Compound 100]",
    "Result Number": 0.32
  },
  {
    "Molecule": "COc1ccc(C=NNc2ncnc3c(C)c(-c4ccccc4O)sc23)cc1O [Compound 84]",
    "Result Number": 2.70
  },
  {
    "Molecule": "COc1ccc(C=NNc2ncnc3c(C)c(-c4ccc([N+](=O)[O-])cc4)sc23)cc1O [Compound 39]",
    "Result Number": 1.36
  },
  {
    "Molecule": "COc1ccc(C=NNc2ncnc3c(C)c(-c4ccc(NC(C)=O)cc4)sc23)cc1O [Compound 43]",
    "Result Number": 2.05
  },
  {
    "Molecule": "CCOc1ccccc1-c1sc2c(NN=Cc3ccc(O)cc3)ncnc2c1O [Compound 104]",
    "Result Number": -0.01
  },
  {
    "Molecule": "CCOc1ccccc1-c1sc2c(NN=Cc3ccc(C(=O)O)cc3)ncnc2c1C#N [compound 68]",
    "Result Number": 1.41
  },
  {
    "Molecule": "CCOc1ccccc1-c1sc2c(NN=Cc3[nH]cnc3C)ncnc2c1O [Compound 117]",
    "Result Number": 0.74
  },
  {
    "Molecule": "COc1ccc(C=NNc2ncnc3c(CO)c(-c4ccc(N)cc4)sc23)cc1O [Compound 58]",
    "Result Number": 1.08
  },
  {
    "Molecule": "CCOc1ccccc1-c1sc2c(NN=Cc3ccc(OC)c(OCCN4CCOCC4)c3)ncnc2c1C [Compound 52]",
    "Result Number": 1.66
  }
]

* * *

Target: Recombinant human Src (Homo sapiens)
Construct: made in house; host or cells: baculovirus-insect cell system
Experiment: Src tyrosine kinase activity assay with poly E4Y and 32P-ATP
Format: biochemical
Details: poly E4Y, 32P-ATP; NI = no inhibition; read-out: IC50 Value Src
Measured Quantity: log10 IC50 (log10 of the value in nM)

[
  {
    "Substance Smiles": "CCOc1ccccc1-c1sc2c(NN=Cc3cccnc3)ncnc2c1O",
    "log10 IC50": 0.48
  },
  {
    "Substance Smiles": "CCOc1ccccc1-c1sc2c(NN=Cc3cccnc3)ncnc2c1CO",
    "log10 IC50": 1.30
  },
  {
    "Substance Smiles": "CCOc1ccccc1-c1sc2c(NN=Cc3ccc(N(C)C)cc3)ncnc2c1C#N",
    "log10 IC50": 2.11
  },
  {
    "Substance Smiles": "CCOc1ccccc1-c1sc2c(NN=Cc3cc(O)c(OC)c(OC)c3)ncnc2c1C",
    "log10 IC50": 0.08
  },
  {
    "Substance Smiles": "Cc1c(-c2ccc(CN)cc2)sc2c(NN=Cc3cccs3)ncnc12",
    "log10 IC50": 1.45
  },
  {
    "Substance Smiles": "CCOc1ccccc1-c1sc2c(NN=Cc3ccco3)ncnc2c1C#N",
    "log10 IC50": 0.67
  },
  {
    "Substance Smiles": "CCOc1ccccc1-c1sc2c(NN=Cc3cccnc3)ncnc2c1C#N",
    "log10 IC50": 0.08
  }
]

* * *

The following compounds are listed with their measured IC50 values.
Molecular target: Recombinant human Src (Homo sapiens, UniProt P12931)
Construct: made in house; host or cells: baculovirus-insect cell system
Sequence (P12931 whole entry): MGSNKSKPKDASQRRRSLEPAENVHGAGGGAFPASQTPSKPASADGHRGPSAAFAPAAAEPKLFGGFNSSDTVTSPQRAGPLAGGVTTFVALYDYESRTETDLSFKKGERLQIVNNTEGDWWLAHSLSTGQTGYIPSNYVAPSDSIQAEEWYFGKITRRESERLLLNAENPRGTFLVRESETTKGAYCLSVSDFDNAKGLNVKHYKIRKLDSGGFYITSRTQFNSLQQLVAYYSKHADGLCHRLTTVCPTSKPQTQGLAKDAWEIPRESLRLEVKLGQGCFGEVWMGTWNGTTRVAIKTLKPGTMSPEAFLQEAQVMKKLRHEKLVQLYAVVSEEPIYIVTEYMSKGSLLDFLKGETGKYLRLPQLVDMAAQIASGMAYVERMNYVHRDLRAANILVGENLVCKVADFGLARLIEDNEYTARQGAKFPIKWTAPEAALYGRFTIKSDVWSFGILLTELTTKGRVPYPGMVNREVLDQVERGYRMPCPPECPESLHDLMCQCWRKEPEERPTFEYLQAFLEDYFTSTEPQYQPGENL
Assay: Src tyrosine kinase activity assay with poly E4Y and 32P-ATP
Assay type: biochemical
Details: poly E4Y, 32P-ATP; NI = no inhibition; read-out: IC50 Value Src

[
  {
    "Compound": "CCOc1ccccc1-c1sc2c(NN=Cc3cccc(C(=O)O)c3)ncnc2c1O",
    "IC50 [nM]": 5
  },
  {
    "Compound": "Cc1c(-c2cccc(C#N)c2)sc2c(NN=Cc3ccc(C(=O)O)cc3)ncnc12",
    "IC50 [nM]": 160
  },
  {
    "Compound": "CCOc1ccccc1-c1sc2c(NN=Cc3ccncc3)ncnc2c1C#N",
    "IC50 [nM]": 1.9
  },
  {
    "Compound": "Cc1c(-c2cccc(C(N)=O)c2)sc2c(NN=Cc3cccs3)ncnc12",
    "IC50 [nM]": 54
  },
  {
    "Compound": "CCOc1ccccc1-c1sc2c(NN=Cc3[nH]cnc3C)ncnc2c1C#N",
    "IC50 [nM]": 2.6
  },
  {
    "Compound": "CCOc1ccccc1-c1sc2c(NN=Cc3ccccc3F)ncnc2c1C",
    "IC50 [nM]": 0.84
  },
  {
    "Compound": "CCOc1ccccc1-c1sc2c(NN=Cc3ccco3)ncnc2c1O",
    "IC50 [nM]": 6
  },
  {
    "Compound": "CCOc1ccccc1-c1sc2c(NN=Cc3ccc(O)c(OC)c3)ncnc2c1C",
    "IC50 [nM]": 3.3
  },
  {
    "Compound": "Cc1c(-c2cccc(CN)c2)sc2c(NN=Cc3cccnc3)ncnc12",
    "IC50 [nM]": 16
  },
  {
    "Compound": "Cc1c(-c2ccc(O)cc2)sc2c(NN=Cc3cccnc3)ncnc12",
    "IC50 [nM]": 21
  },
  {
    "Compound": "COc1ccc(C=NNc2ncnc3c(C)c(-c4cccc(C(N)=O)c4)sc23)cc1O",
    "IC50 [nM]": 14
  },
  {
    "Compound": "Cc1c(-c2ccc(C(N)=O)cc2)sc2c(NN=Cc3ccc(C(=O)O)cc3)ncnc12",
    "IC50 [nM]": 36
  },
  {
    "Compound": "COc1ccc(C=NNc2ncnc3c(C)c(-c4ccc(NC(C)=O)cc4)sc23)cc1O",
    "IC50 [nM]": 12
  },
  {
    "Compound": "CCOc1ccccc1-c1sc2c(NN=Cc3ccc(OC)c(OCCN(CC)CC)c3)ncnc2c1C (single isomer, unassigned)",
    "IC50 [nM]": 0.015
  }
]
